# ASSAY SYSTEM: DNA repair nuclease/redox regulator APEX1 (Homo sapiens)
# Sequence (P27695 whole entry): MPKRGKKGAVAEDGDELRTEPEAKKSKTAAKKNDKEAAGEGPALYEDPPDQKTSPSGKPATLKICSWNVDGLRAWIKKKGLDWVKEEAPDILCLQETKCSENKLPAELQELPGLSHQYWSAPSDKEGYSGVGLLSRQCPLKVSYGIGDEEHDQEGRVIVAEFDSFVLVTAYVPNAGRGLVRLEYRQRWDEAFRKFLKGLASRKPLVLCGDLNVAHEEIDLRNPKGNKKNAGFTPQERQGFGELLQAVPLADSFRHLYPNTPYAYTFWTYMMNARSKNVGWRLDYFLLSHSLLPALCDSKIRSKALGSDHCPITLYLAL
# PROTOCOL TEXT: Inhibition of purified human recombinant APE1 expressed in Escherichia coli M15 cells
ENDPOINT: IC50

These recorded examples may help you get a feel for the data.
COc1cc(S(=O)(=O)N(Cc2cccnc2)Cc2ccccc2Cl)ccc1-n1cnnn1
> 100 µM
NC(=O)CSc1nc2ccc(NC(=O)c3ccccc3C(=O)O)cc2s1
27 µM
O=C(O)CN1C(=O)/C(=C2\SC(=S)N(NC(=O)c3ccccc3O)C2=O)c2ccccc21
11 µM
CCc1nnc(NC(=O)c2cc(S(=O)(=O)N(CC)CC)ccc2Cl)s1
> 100 µM
Cc1cc(S(=O)(=O)NC2CCCC2)ccc1-n1cnnn1
> 100 µM

API: value(readout= IC50, system= DNA repair nuclease/redox regulator APEX1 (Homo sapiens), query= CCS(=O)(=O)Nc1cc2c(C(C)=O)c(C)n(S(=O)(=O)CC)c2cc1C ) > 100 µM

API: value(readout= IC50, system= DNA repair nuclease/redox regulator APEX1 (Homo sapiens), query= Cc1cc(C(=O)O)c(CSCc2cc(C(=O)O)c(C)o2)o1 ) > 100 µM

API: value(readout= IC50, system= DNA repair nuclease/redox regulator APEX1 (Homo sapiens), query= CCS(=O)(=O)N1CCN(S(=O)(=O)c2ccc(C(=O)O)cc2)CC1 ) > 100 µM

API: value(readout= IC50, system= DNA repair nuclease/redox regulator APEX1 (Homo sapiens), query= CS(=O)(=O)Nc1nc(CC(=O)O)cs1 ) > 100 µM

API: value(readout= IC50, system= DNA repair nuclease/redox regulator APEX1 (Homo sapiens), query= O=[N+]([O-])c1ccccc1-c1nnc(CSc2nc(-c3ccccc3O)n[nH]2)o1 ) > 100 µM

Reference source for all entries: ChEMBL document CHEMBL1139343
